assay: Cytotoxicity against human HK2 cells assessed as cell viability at 25 ug/ml after 24 hrs by MTT assay; assay type: toxicity, cell-based; settings: hk-2, 24 h

# smiles.record, Activity
data = [
    ("NCCCC[C@H](NC(=O)[C@@H](N)CCCN)C(=O)N[C@@H](Cc1ccccc1)CN(CC(=O)NCC12CC3CC(CC(C3)C1)C2)C(=O)CC12CC3CC(CC(C3)C1)C2", "Non-Toxic"),
    ("NCCCC[C@H](N)C(=O)N[C@@H](Cc1ccccc1)CN(CC(=O)NCc1cc(C(F)(F)F)cc(C(F)(F)F)c1)C(=O)CC12CC3CC(CC(C3)C1)C2", "Non-Toxic"),
    ("CC(C)(C)c1ccc(CNC(=O)CN(C[C@H](Cc2ccccc2)NC(=O)[C@@H](N)CCCCN)C(=O)CC23CC4CC(CC(C4)C2)C3)cc1", "Non-Toxic"),
]

----------
tested on: Klebsiella pneumoniae; assay: Antibacterial activity against Klebsiella pneumoniae ATCC 13383 after 16 to 20 hrs by two fold serial dilution method; format: functional
I'd appreciate it if you could supply MIC values for the items below.

## Task I am curious: what MIC value has been reported for NCCCC[C@H](N)C(=O)N[C@@H](Cc1ccccc1)CN(CC(=O)NCc1ccc(-c2ccccc2)cc1)C(=O)CC12CC3CC(CC(C3)C1)C2 ?
## Result 12.5 mg/L

## Task // returns reported MIC for input N=C(N)NCCC[C@H](N)C(=O)N[C@@H](Cc1ccccc1)CN(CC(=O)NCc1cccc2ccccc12)C(=O)c1ccc2ccccc2c1
## Result 25 mg/L

## Task Item under review: NCCCC[C@@H](CN(CC(=O)NCc1cccc2ccccc12)C(=O)CCCN)NC(=O)c1ccc2ccccc2c1 . Reported MIC?
## Result > 50 mg/L

## Task Entry under review: NCCCC[C@H](N)C(=O)N[C@@H](Cc1ccccc1)CN(CC(=O)NCC12CC3CC(CC(C3)C1)C2)C(=O)CC12CC3CC(CC(C3)C1)C2 . Reported MIC?
## Result 6.25 mg/L

## Task Bench note: what MIC did NCCCC[C@@H](CN(CC(=O)NCc1cccc2ccccc12)C(=O)CC12CC3CC(CC(C3)C1)C2)NC(=O)[C@@H](N)CCCCN show?
## Result > 50 mg/L

----------
system: Klebsiella pneumoniae; test: Antibacterial activity against Klebsiella pneumoniae ATCC 13383 after 16 to 20 hrs by two fold serial dilution method; type: functional
What MIC was measured for each of the following?
Could you give me the number in µg/mL? Just the number is fine.

## Task Could you tell me which MIC is on file for NCCCC[C@H](N)C(=O)N[C@@H](Cc1ccccc1)CN(CC(=O)NCc1cccc2ccccc12)C(=O)c1ccc2ccccc2c1 ?
## Result 25

## Task Query: MIC; subject: NCCCC[C@H](N)C(=O)N[C@@H](Cc1ccccc1)CN(CC(=O)NCc1ccc(C(F)(F)F)cc1)C(=O)CC12CC3CC(CC(C3)C1)C2
## Result 6.25

## Task # query: MIC of entry NCCCC[C@H](N)C(=O)N[C@@H](Cc1ccccc1)CN(CC(=O)NCc1cccc2ccccc12)C(=O)CC12CC3CC(CC(C3)C1)C2
## Result 12.5

## Task I'd like to know its MIC. The compound in question is CC(C)(C)c1ccc(CNC(=O)CN(C[C@H](Cc2ccccc2)NC(=O)[C@@H](N)CCCCN)C(=O)CC23CC4CC(CC(C4)C2)C3)cc1
## Result 6.25

## Task Look up MIC for this compound: NCCCC[C@H](N)C(=O)N[C@@H](Cc1ccccc1)CN(CC(=O)NCc1cc(C(F)(F)F)cc(C(F)(F)F)c1)C(=O)CC12CC3CC(CC(C3)C1)C2
## Result 6.25

## Task What measured MIC goes with NCCCC[C@H](N)C(=O)N[C@@H](Cc1ccccc1)CN(CC(=O)N(Cc1ccccc1)Cc1ccccc1)C(=O)CC12CC3CC(CC(C3)C1)C2 ?
## Result 12.5

## Task Name the reported MIC value associated with the compound NCCCC[C@H](N)CN(CC(=O)NCc1cccc2ccccc12)C(=O)c1ccc2ccccc2c1
## Result 25
